# System: human bronchial epithelial cells, CFTR corrector, plate reader
# experiment notes: rescue of ΔF508 CFTR function, airway epithelium – human bronchial epithelial cells, plate reader, cherry-pick, two tests, dose response (AID 743267)
# details: measured here: test 2 replicate run
# AC50 values compiled below
Write down the numeric answer in µM and omit the unit.

compound	reading unit	endpoint result
COc1cc(-c2cnc3c(NC=O)cc(-c4cccc(C(F)(F)F)c4)cn23)cc(OC)c1OC	µM	7.05

Shift focus to the following entry.
Give human bronchial epithelial cells, CFTR corrector, plate reader AC50 for the following compound: Cc1ccc(S(=O)(=O)N2CCCCC2CCNC(=O)C(=O)NCc2ccccc2)cc1 (centres undefined)
3.29
